# Tested on: DBTRG brain tumor cells
# Format: cell-based
# Measurement setup: human
Ends that are not written are not given here.
Readout: IC50 (µM)
Unit µM implied. Number only.

Prompt: Provide value of IC50 for this record tested with DBTRG brain tumor cells: EQQQQQQPQNRRFRE [ACP11]
Response: 32.1
